Target: Estrogen receptor beta (Homo sapiens)
Sequence (Q92731 whole entry): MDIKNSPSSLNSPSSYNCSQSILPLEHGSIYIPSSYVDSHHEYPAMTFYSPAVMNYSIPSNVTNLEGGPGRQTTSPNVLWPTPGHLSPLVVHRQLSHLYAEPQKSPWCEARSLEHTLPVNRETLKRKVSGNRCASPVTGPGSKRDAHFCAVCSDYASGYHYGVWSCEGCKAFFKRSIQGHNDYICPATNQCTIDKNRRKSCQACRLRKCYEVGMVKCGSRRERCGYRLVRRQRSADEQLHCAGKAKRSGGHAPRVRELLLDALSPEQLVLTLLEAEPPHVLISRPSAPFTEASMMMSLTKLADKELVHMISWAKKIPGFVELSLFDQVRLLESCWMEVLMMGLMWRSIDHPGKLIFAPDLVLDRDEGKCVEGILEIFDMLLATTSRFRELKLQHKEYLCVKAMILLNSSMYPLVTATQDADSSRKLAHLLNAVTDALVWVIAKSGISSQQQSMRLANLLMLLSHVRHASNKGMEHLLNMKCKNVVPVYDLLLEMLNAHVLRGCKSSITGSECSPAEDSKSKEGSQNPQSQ
Assay: Antagonist activity at ER-beta (unknown origin) transfected in HEK293T cells assessed as inhibition of transcriptional activity after 24 hrs by luciferase reporter gene assay relative to 17-beta estradiol
Format: cell-based
Details: HEK-293T
hey, just use MET if measured Efficacy is less than 80%, otherwise NOT MET

Consider the worked cases shown below.
O=C(O)CCCCCCC(=O)Nc1ccc(C2=C(c3ccc(O)cc3)C3CC(S(=O)(=O)Oc4cccc5ccccc45)C2O3)cc1 (stereo not drawn) | MET
O=C(CCCCCCC(=O)Nc1ccc(C2=C(c3ccc(O)cc3)C3CC(S(=O)(=O)Oc4ccc(Br)cc4)C2O3)cc1)NO (racemic) | NOT MET
Cc1cccc(OS(=O)(=O)C2CC3OC2C(c2ccc(NC(=O)CCCCCCC(=O)O)cc2)=C3c2ccc(O)cc2)c1 (racemic) | NOT MET
Cc1ccc(OS(=O)(=O)C2CC3OC2C(c2ccc(NC(=O)CCCCCCC(=O)NO)cc2)=C3c2ccc(O)cc2)cc1 (racemic) | NOT MET
Cc1cccc(OS(=O)(=O)C2CC3OC2C(c2ccc(NC(=O)CCCCCCC(=O)NO)cc2)=C3c2ccc(O)cc2)c1 (racemic) | MET

State whether 80% exceeds Efficacy recorded for COc1cccc(OS(=O)(=O)C2CC3OC2C(c2ccc(NC(=O)CCCCCCC(=O)O)cc2)=C3c2ccc(O)cc2)c1 (racemic) .
NOT MET

State whether 80% exceeds Efficacy recorded for COC(=O)CCCCCCC(=O)Nc1ccc(OS(=O)(=O)C2CC3OC2C(c2ccc(O)cc2)=C3c2ccc(O)cc2)cc1 (stereo not drawn) .
MET

State whether 80% exceeds Efficacy recorded for Cc1ccccc1OS(=O)(=O)C1CC2OC1C(c1ccc(NC(=O)CCCCCCC(=O)NO)cc1)=C2c1ccc(O)cc1 (racemic) .
NOT MET
